Molecular target: 5-HT1A type serotonin receptor (human recombinant, HEK-293 cells) (Homo sapiens, UniProt P08908)
Construct: expressed in transfected cells; host or cells: HEK-293 cells
Sequence (P08908 whole entry): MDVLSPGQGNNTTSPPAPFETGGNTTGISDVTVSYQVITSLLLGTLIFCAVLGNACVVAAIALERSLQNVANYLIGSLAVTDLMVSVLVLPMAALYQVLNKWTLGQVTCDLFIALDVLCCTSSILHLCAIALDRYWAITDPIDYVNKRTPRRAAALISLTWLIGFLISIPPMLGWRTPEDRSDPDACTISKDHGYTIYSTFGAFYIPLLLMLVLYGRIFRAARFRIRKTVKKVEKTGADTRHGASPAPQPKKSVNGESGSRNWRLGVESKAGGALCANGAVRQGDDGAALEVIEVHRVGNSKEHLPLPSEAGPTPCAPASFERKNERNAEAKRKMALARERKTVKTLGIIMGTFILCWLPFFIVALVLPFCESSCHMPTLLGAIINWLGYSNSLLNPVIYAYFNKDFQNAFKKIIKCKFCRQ
Assay: Competitive binding to 5-HT1A receptor, [3H]-8-OH-DPAT radioligand
Details: 10 nM compound; [3H]-8-OH-DPAT 0.5 nM
Method: Compounds were assayed for competitive binding to the 5-HT1A type serotonin receptor. The receptor is expressed as human recombinant proteins in HEK-293 cells, as described, for example, in Hoyer et al. (1985) and Schoeffter and Hoyer (1989). Determination of binding to 5-HT1A receptor was performed using [^3H]-8-OH-DPAT, a 5-HT1A receptor ligand (Hoyer et al., 1985), as a radioligand (221 Ci/mmol, 0.5 nM) in the presence of various concentrations of the tested compound. […]
MEASURE NAME: 5HT1A receptor Binding % at 10 nM

CCOc1ccccc1N1CCN(Cc2nc3sc4c(c3c(=O)[nH]2)CCCC4)CC1 | 20.23%
CCOc1ccccc1N1CCN(Cc2cc3c(cn2)[nH]c2ccccc23)CC1 | 37.48%
Oc1cccc(N2CCN(Cc3cc4c(cn3)[nH]c3ccccc34)CC2)c1 | active
O=c1[nH]c(CN2CCC(c3ccccc3)CC2)nc2sc3c(c12)CCCC3 | active
O=c1[nH]c(CN2CCN(c3cccc(O)c3)CC2)nc2sc3c(c12)CCCC3 | active

Returns the measured 5HT1A receptor Binding % at 10 nM for the input compound. Input: COc1ccccc1N1CCN(Cc2cc3c(cn2)[nH]c2ccccc23)CC1
active

* * *

Measured D4.4(h) receptor Competitive Binding, % at 100 nM, listed per entry for reference.
Target: D4.4 type dopamine receptor (human recombinant, CHO cells) (Homo sapiens, UniProt P21917)
Construct: expressed in transfected cells; host or cells: CHO cells
Sequence (P21917 1-419): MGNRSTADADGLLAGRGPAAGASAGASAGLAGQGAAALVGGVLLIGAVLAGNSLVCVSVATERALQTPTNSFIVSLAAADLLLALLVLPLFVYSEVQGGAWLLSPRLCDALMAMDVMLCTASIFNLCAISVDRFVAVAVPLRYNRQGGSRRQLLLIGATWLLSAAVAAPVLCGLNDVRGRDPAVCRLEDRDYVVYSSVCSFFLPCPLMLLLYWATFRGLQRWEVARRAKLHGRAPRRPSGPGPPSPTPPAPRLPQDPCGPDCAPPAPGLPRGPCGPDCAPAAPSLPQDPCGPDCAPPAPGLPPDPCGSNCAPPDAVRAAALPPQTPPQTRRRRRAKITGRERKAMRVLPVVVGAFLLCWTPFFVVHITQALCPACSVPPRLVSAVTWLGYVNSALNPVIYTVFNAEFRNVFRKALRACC
Assay: Competitive binding to D4.4 dopamine receptor, [3H]-YM-09151-2 radioligand
Conditions: 100 nM compound; [3H]-YM-09151-2 0.3 nM
Reply numerically in %, unit not repeated.

Solved entries:
O=c1[nH]c(CN2CCN(c3cccc(O)c3)CC2)nc2sc3c(c12)CCCC3 | 32.26
COc1ccccc1N1CCN(Cc2cc3c(cn2)[nH]c2ccccc23)CC1 | 97.43
Oc1cccc(N2CCN(Cc3cc4c(cn3)[nH]c3ccccc34)CC2)c1 | 87.6
CCOc1ccccc1N1CCN(Cc2nc3sc4c(c3c(=O)[nH]2)CCCC4)CC1 | 19.14
CCOc1ccccc1N1CCN(Cc2cc3c(cn2)[nH]c2ccccc23)CC1 | 74.27

What D4.4(h) receptor Competitive Binding, % at 100 nM appears in the records for this compound with D4.4 type dopamine receptor (human recombinant, CHO cells) (Homo sapiens, UniProt P21917)? O=c1[nH]c(CN2CCC(c3ccccc3)CC2)nc2sc3c(c12)CCCC3
16.69
